# runConditions: in ethanol, 313.2 K
propertyLabel: solubility (mole fraction)
Reply with just the number.

Query :: // returns reported solubility (mole fraction) for input `O=c1cc(-c2ccccc2)oc2c1ccc1ccccc12`
Result :: 0.00235

---

# runConditions: in n-butanol, 308.15 K
propertyLabel: solubility (mole fraction)
Give only the figure.

Query :: Which solubility (mole fraction) reading was recorded for the compound `O=c1cc(-c2ccccc2)oc2c1ccc1ccccc12` ?
Result :: 0.00487

---

# runConditions: in acetonitrile, 298.15 K
propertyLabel: solubility (mole fraction)
Simply state the number, no unit and no words.

Query :: Suppose we examine the molecule `O=c1cc(-c2ccccc2)oc2c1ccc1ccccc12` ; what solubility (mole fraction) value has been reported?
Result :: 0.00176
